# Test system: porcine saphenous veins
# Format: cell-based
# APPLIED_CONDITIONS: pig, 15 min, 50 %
PARAMETER: average stress, contraction with KCl (N/m^2)

INSERT INTO assay_data (smiles_repr, system_name, unit_string, numeric_result) VALUES
  ('CC(C)O', 'porcine saphenous veins', 'N/m^2', 5);
